Target: Muscarinic acetylcholine receptor M5 (Homo sapiens)
Assay: human M5 muscarinic receptor antagonists, primary screen, CHO cells, Fluo-8 calcium fluorescence (AID 624040);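 note: 0% = acetylcholine EC80 with DMSO and 100% = DMSO without agonist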
Conditions: CHO-hM5 cells, ACh EC80, at 3 µM, active compounds read high
Hit rate of the full screen: of about 360,000 compounds, about 2,100 (0.58%) were called active. Only a selection was taken, and actives are over-represented in it overall.
Assay metric: inhibition (%)
Number in %, nothing else.

Lookup: I have this compound here, O=C(NCC1(N2CCCCC2)CCCCC1)c1ccc(NS(=O)(=O)c2ccc(F)cc2)cc1 , and I need its recorded inhibition.
Found: 6.39

Lookup: I have this compound here, CCN(CC)c1ccc(NC(=O)CN2CCN(c3ccccn3)CC2)cc1 , and I need its recorded inhibition.
Found: 1.09

Lookup: I have this compound here, CCOCCn1[nH]c2ccccc2c1=O , and I need its recorded inhibition.
Found: 3.03

Lookup: I have this compound here, CCCOCC(O)CC(CC)C(=O)NNC(=S)Nc1ccccc1 (stereo unspecified) , and I need its recorded inhibition.
Found: -7.7

Lookup: I have this compound here, Cc1cccc(-n2c(Cc3cc(=O)[nH]c(=O)[nH]3)nnc2SC(C)C)c1 , and I need its recorded inhibition.
Found: -3.22

Lookup: I have this compound here, O=C(NCc1ccco1)C(c1ccncc1)N(C(=O)Cn1nnc2ccccc21)c1ccccc1 (stereo unspecified) , and I need its recorded inhibition.
Found: 9.94

Recorded values, source PubChem BioAssay AID624040.
